# Test system: Klebsiella oxytoca
# protocol.notes: Expected efficacy of antibiotic agents
# condition.summary: expected efficacy against Klebsiella oxytoca; Gram: neg
quantity.kind: Efficacy

- smiles.input: "CN[C@H](CC(C)C)C(=O)N[C@H]1C(=O)N[C@@H](CC(N)=O)C(=O)N[C@H]2C(=O)N[C@H]3C(=O)N[C@H](C(=O)N[C@H](C(=O)O)c4cc(O)cc(O)c4-c4cc3ccc4O)[C@H](O)c3ccc(c(Cl)c3)Oc3cc2cc(c3O[C@@H]2O[C@H](CO)[C@@H](O)[C@H](O)[C@H]2O[C@H]2C[C@](C)(N)[C@H](O)[C@H](C)O2)Oc2ccc(cc2Cl)[C@H]1O"
  observed.result: "no"
- smiles.input: "CC[C@H]1OC(=O)[C@H](C)[C@@H](O[C@H]2C[C@@](C)(OC)[C@@H](O)[C@H](C)O2)[C@H](C)[C@@H](O[C@@H]2O[C@H](C)C[C@H](N(C)C)[C@H]2O)[C@](C)(O)C[C@@H](C)CN(C)[C@H](C)[C@@H](O)[C@]1(C)O"
  observed.result: "no"
- smiles.input: "C/C(=C\\C(=O)OCCCCCCCCC(=O)O)C[C@@H]1OC[C@H](C[C@@H]2O[C@H]2[C@@H](C)[C@H](C)O)[C@@H](O)[C@H]1O"
  observed.result: "no"

###

# Test system: Vibrio cholerae
# protocol.notes: Expected efficacy of antibiotic agents
# condition.summary: expected efficacy against Vibrio cholerae; Gram: neg

- smiles.input: "O=C(O)c1cn(C2CC2)c2cc(N3CCNCC3)c(F)cc2c1=O"
  Efficacy: "yes"
- smiles.input: "CN[C@H](CC(C)C)C(=O)N[C@H]1C(=O)N[C@@H](CC(N)=O)C(=O)N[C@H]2C(=O)N[C@H]3C(=O)N[C@H](C(=O)N[C@H](C(=O)O)c4cc(O)cc(O)c4-c4cc3ccc4O)[C@H](O)c3ccc(c(Cl)c3)Oc3cc2cc(c3O[C@@H]2O[C@H](CO)[C@@H](O)[C@H](O)[C@H]2O[C@H]2C[C@](C)(N)[C@H](O)[C@H](C)O2)Oc2ccc(cc2Cl)[C@H]1O"
  Efficacy: "no"
- smiles.input: "CO/N=C(\\C(=O)N[C@@H]1C(=O)N2C(C(=O)O)=C(CSc3nc(=O)c(=O)[nH]n3C)CS[C@H]12)c1csc(N)n1"
  Efficacy: "no"
- smiles.input: "C/C(=C\\C(=O)OCCCCCCCCC(=O)O)C[C@@H]1OC[C@H](C[C@@H]2O[C@H]2[C@@H](C)[C@H](C)O)[C@@H](O)[C@H]1O"
  Efficacy: "no"

###

# Tested on: Providencia stuartii
# protocol.notes: Expected efficacy of antibiotic agents
# condition.summary: expected efficacy against Providencia stuartii; Gram: neg

- smiles.input: "CN[C@H](CC(C)C)C(=O)N[C@H]1C(=O)N[C@@H](CC(N)=O)C(=O)N[C@H]2C(=O)N[C@H]3C(=O)N[C@H](C(=O)N[C@H](C(=O)O)c4cc(O)cc(O)c4-c4cc3ccc4O)[C@H](O)c3ccc(c(Cl)c3)Oc3cc2cc(c3O[C@@H]2O[C@H](CO)[C@@H](O)[C@H](O)[C@H]2O[C@H]2C[C@](C)(N)[C@H](O)[C@H](C)O2)Oc2ccc(cc2Cl)[C@H]1O"
  target: "Providencia stuartii"
  Efficacy: "no"
- smiles.input: "C/C(=C\\C(=O)OCCCCCCCCC(=O)O)C[C@@H]1OC[C@H](C[C@@H]2O[C@H]2[C@@H](C)[C@H](C)O)[C@@H](O)[C@H]1O"
  target: "Providencia stuartii"
  Efficacy: "no"
- smiles.input: "CO/N=C(\\C(=O)N[C@@H]1C(=O)N2C(C(=O)O)=C(CSc3nc(=O)c(=O)[nH]n3C)CS[C@H]12)c1csc(N)n1"
  target: "Providencia stuartii"
  Efficacy: "yes"
- smiles.input: "CC[C@H]1OC(=O)[C@H](C)[C@@H](O[C@H]2C[C@@](C)(OC)[C@@H](O)[C@H](C)O2)[C@H](C)[C@@H](O[C@@H]2O[C@H](C)C[C@H](N(C)C)[C@H]2O)[C@](C)(O)C[C@@H](C)CN(C)[C@H](C)[C@@H](O)[C@]1(C)O"
  target: "Providencia stuartii"
  Efficacy: "no"
- smiles.input: "O=C(O)c1cn(C2CC2)c2cc(N3CCNCC3)c(F)cc2c1=O"
  target: "Providencia stuartii"
  Efficacy: "yes"

Where these numbers come from: patent US20220265694A1
